MEASURED ON: full-length AR (Homo sapiens, UniProt P10275, T878A)
Construct: endogenous in cells
Sequence (P10275 whole entry T878A): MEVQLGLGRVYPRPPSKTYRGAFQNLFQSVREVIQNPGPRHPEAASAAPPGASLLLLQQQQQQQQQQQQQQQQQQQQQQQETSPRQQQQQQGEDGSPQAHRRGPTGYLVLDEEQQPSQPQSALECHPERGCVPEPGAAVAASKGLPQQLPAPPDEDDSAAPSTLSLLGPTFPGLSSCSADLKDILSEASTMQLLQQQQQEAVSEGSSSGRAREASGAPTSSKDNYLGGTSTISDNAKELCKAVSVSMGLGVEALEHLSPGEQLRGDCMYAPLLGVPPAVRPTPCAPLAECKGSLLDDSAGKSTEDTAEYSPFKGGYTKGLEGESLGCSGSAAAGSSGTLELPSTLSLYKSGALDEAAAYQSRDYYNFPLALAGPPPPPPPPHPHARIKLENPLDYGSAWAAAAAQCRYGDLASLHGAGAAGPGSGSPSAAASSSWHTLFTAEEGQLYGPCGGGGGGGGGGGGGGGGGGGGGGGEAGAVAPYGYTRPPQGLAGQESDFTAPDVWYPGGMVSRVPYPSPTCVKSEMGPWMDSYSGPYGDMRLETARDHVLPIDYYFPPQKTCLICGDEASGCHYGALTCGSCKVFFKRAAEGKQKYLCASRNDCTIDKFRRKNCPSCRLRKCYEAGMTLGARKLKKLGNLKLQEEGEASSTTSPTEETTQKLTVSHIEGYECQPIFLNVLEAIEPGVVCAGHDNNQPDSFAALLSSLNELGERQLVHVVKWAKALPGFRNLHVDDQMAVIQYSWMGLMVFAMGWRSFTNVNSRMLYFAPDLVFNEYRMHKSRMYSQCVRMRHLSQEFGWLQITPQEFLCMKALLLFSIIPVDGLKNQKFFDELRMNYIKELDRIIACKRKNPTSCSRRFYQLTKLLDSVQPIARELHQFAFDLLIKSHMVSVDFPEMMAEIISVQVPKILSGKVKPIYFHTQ
PROTOCOL TEXT: eGFP AR transcriptional assay in LNCaP cells
ASSAY SETUP: LNCaP-eGFP; read-out: estimated IC50, AR-FL transcriptional activity (eGFP)
pIC50: −log10 of the molar value.
MEASURE: pIC50

>>> value_observed("CC(O)(CNC(=O)C=Cc1ccnc2ccccc12)c1ccsc1 (centres unmarked)")
5.30
>>> value_observed("O=C(NCc1cccc2ccccc12)NCC(O)(c1cccs1)c1cccs1")
5.70

====

PROTOCOL TEXT: Metabolic stability in human microsomes
Format: in vitro ADME
ASSAY SETUP: read-out: half-life in microsomes (T1/2)
Source text: We then tested the metabolic stability of these molecules using human microsomes. […] This could explain the lower potency of this compound in cell growth assays, as it is metabolized quickly in the media.
MEASURE: half-life (min)

>>> value_observed("O=C(NCc1cccc2ccccc12)NCC(O)(c1cccs1)c1cccs1 [VPC-17160]")
3

====

PROTOCOL TEXT: Metabolic stability in human microsomes
Type: in vitro ADME
ASSAY SETUP: microsomal stability, Table 1, read-out: Half-Life
Listed next: entries and their corresponding half-life.
MEASURE: half-life (h)

>>> value_observed("CC(O)(CNC(=O)C=Cc1ccnc2ccccc12)c1ccsc1 (stereo not drawn)")
1.5
>>> value_observed("O=C(NCc1cccc2ccccc12)NCC(O)(c1cccs1)c1cccs1")
0.05

====

Tested on: 22rv1 cells
PROTOCOL TEXT: Cell viability (PrestoBlue), 22rv1
Format: cell-based
ASSAY SETUP: Homo sapiens; 22rv1 (AR-V7 dependent); read-out: IC50, cell growth
MEASURE: IC50 (µM)

>>> value_observed("CC(O)(CNC(=O)C=Cc1ccnc2ccccc12)c1ccsc1 (stereo not shown) [VPC-17281]")
10
